Tested on: SF-295 CNS
Test: NCI-60 one-dose screen, 48 h
Conditions: 10 µM unless noted
The panel holds about 83,000 compounds, 20% with a hit somewhere; the sample as a whole holds those more often. Active and inactive are the calls of the source. How the source made its calls: active means growth percent below 10; inactive means the rest.
Your answer must be one of the following: true (1) = active, false (0) = inactive

{"MOLECULE": "COc1ccc(C(=O)c2cc3c(N)c(C(=O)Nc4cccc(Cl)c4)sc3nc2C)cc1", "CLASS LABEL": "false (0)"}
{"MOLECULE": "COc1cc(COC(=O)CCCCC[P+](c2ccccc2)(c2ccccc2)c2ccccc2)c(OC)c2c1OCO2", "CLASS LABEL": "false (0)"}
{"MOLECULE": "Cc1c(C2=CCCCC2)c2ccccn2c1C(=O)c1cccc(S(=O)(=O)N2CCOCC2)c1", "CLASS LABEL": "false (0)"}
{"MOLECULE": "COc1ccc(C(O)c2cc3c(N)c(C(=O)Nc4ccc(Cl)cc4)sc3nc2C)cc1 (centres undefined)", "CLASS LABEL": "false (0)"}
{"MOLECULE": "O=C(/C=C\\c1ccc(OCCCCCC[P+](c2ccccc2)(c2ccccc2)c2ccccc2)cc1)c1ccc2c(c1)OCCO2", "CLASS LABEL": "true (1)"}
{"MOLECULE": "COc1cc(C(=O)c2cnc(-c3ccc4cc[nH]c4c3)[nH]2)cc(OC)c1OC", "CLASS LABEL": "true (1)"}
{"MOLECULE": "COc1ccc(-c2nc(N/N=C/c3cccc(O)c3)nc(N3CCOCC3)c2C#N)cc1", "CLASS LABEL": "false (0)"}
{"MOLECULE": "CC1=CC2(C)/C=C(C)/C=C\\CC(O)/C=C3/C=CC(=C4C(=O)OC2(CC1C)C4=O)OC3 (centres undefined)", "CLASS LABEL": "false (0)"}

Please turn your attention to the following entry.
Data request: What call does the record list for Clc1cc(Cl)cc(N2N=C(c3cccc(Nc4ccncc4)c3)CC2c2ccc(Br)cc2)c1 (centres undefined) ?
Data returned: false (0)
